- Tested on: MCF7 breast
- test_description: NCI-60 one-dose screen, 48 h (100 = growth as untreated, 0 = no growth, -100 = all killed)
- conditions: 10 µM unless noted
The panel holds about 83,000 compounds, 20% with a hit somewhere; the sample as a whole holds those more often.
assay_metric: growth (%)

1) COc1cc(OC)c(/C=C/C(=O)c2ccc(Nc3ncnc4ccccc34)cc2)c(OC)c1	0.53
2) CS(=O)(=O)c1ccc(-c2cc3c(oc2=O)-c2ccccc2OC3O)cc1 (stereo unspecified)	84.8
3) Nc1nc(SN=Nc2ccc(S(N)(=O)=O)cc2)c2[nH]cnc2n1	7.59
4) O=C(N/N=C/c1ccc(O)c(O)c1)c1sc2ccccc2c1Cl	54.4
5) O=C(OCc1nc2nc(Cl)nc(N3CCOCC3)c2[nH]1)n1ccnc1	4.72
6) COc1ccc(C(O)c2cc3c(N)c(C(=O)Nc4cccc(OC)c4)sc3nc2C)cc1 (stereo unspecified)	17.8
7) CC(C)Sc1nc(NN)c(C#N)c(-c2ccccc2)n1	90.9
8) C#CCNC(=O)[C@H](Cc1ccccc1)NC(=O)[C@]12CC[C@@H](C(=C)C)[C@@H]1[C@H]1CC[C@@H]3[C@@]4(C)Cc5c([nH]c6ccccc56)C(C)(C)[C@@H]4CC[C@@]3(C)[C@]1(C)CC2	85.3
9) O=C1Nc2c(ccc(Cl)c2Cl)/C1=C/c1ccc([N+](=O)[O-])cc1	90.4
10) Clc1ccc2c(c1)c(-c1ccccc1)nc1nncn12	99
11) C=C1C(=O)O[C@H]2[C@H]1CC/C(CNC(=O)/C=C/c1ccc(Br)cc1)=C\CC[C@@]1(C)O[C@@H]21	-66.7
12) O=C1Nc2c(ccc(Cl)c2Cl)/C1=C/c1ccc(O)cc1	54.1
13) CCCc1cc2c(cc1Br)OCO2	95
14) CCCCCCCCN1C(=O)/C(=c2\sc3n(c2=O)C2C(NN=3)N(CC)C(=O)N2CC)c2ccccc21 (stereo unspecified)	85.2
15) C[C@@H]1CN(Cc2ccc(/C=C/c3n[nH]c4ccc5nc(-c6cn[nH]c6C(F)(F)F)c6c(c5c34)CCCC6)cc2)C[C@H](C)O1	12.4
16) NC(=S)N/N=C/c1ccc(OC(=O)COc2cc(Cl)c(Cl)cc2Cl)cn1	28.5
17) COc1ccc(C(=O)/C=C/c2ccc(OCc3ccccc3)c(OC)c2)cc1OC	22.5
18) COc1cc(-c2nc3sccn3c2-c2ccnc(NCCNS(=O)(=O)c3ccc(F)cc3)n2)ccc1F	5.83
19) O=S(=O)(NCCNc1nccc(-c2c(-c3ccc(F)c(O)c3)nc3occn23)n1)c1ccccc1	36.5
20) c1ccc(Cn2nc3c(c2-c2ccccc2)-c2oncc2CC3)cc1	82.5
21) CC(=O)N1N=C(c2cccc(Nc3ccncc3)c2)CC1c1ccc2c(c1)OCO2 (stereo unspecified)	71.4

---

- System: OVCAR-3 ovarian
- test_description: NCI-60 one-dose screen, 48 h (100 = growth as untreated, 0 = no growth, -100 = all killed)
- conditions: 10 µM unless noted
This is part of a sample that, as a whole, favours compounds with a hit. Of some 83,000 tested, about 20% had one in any assay. Active and inactive are the calls of the source. How the source made its calls: active means growth percent below 10; inactive means the rest.
The entries below come with measured growth values attached.
assay_metric: growth

1) CCCCCCN(C)Cc1ccc(OCCOc2ccc(CN(C)CCCCCC)cc2)cc1	44.9% (inactive)
2) c1ccc(N2N=C(c3cccc(Nc4ccncc4)c3)CC2c2ccc3c(c2)OCO3)cc1 (stereo not given)	7.28% (active)
3) COc1cc(Nc2cc(O)c3c(=O)cc(-c4ccccc4)oc3c2)cc(OC)c1	0.368% (active)
4) COc1ccc(C(=O)/C=C/c2c(OC)cc(OC)cc2OC)c(OC)c1	-33.3% (active)
5) O=C(NNc1nc(Cl)nc(N2CCN(C(c3ccccc3)c3ccccc3)CC2)n1)c1ccccc1	-90.5% (active)
6) COc1ccccc1/C=N/NC1=NC2C(N1)N(C)C(=O)N2C (stereo not given)	107% (inactive)
7) CCC(C)C(N)C(=O)NNc1n[nH]c(=S)n1N (stereo not given)	107% (inactive)
8) CC1(C)CN(c2cnc(C(=O)Nc3cc(F)cc4cccnc34)cn2)CCN1	10.6% (inactive)
9) c1ccc(-c2nn(-c3ccccc3)[n+](-c3cccc4ccccc34)n2)cc1	8.96% (active)
10) COC(=O)CCCCCCCCC1(C)C=CC(C(C)O)=CC1 (stereo not given)	111% (inactive)

---

- System: HT29 colon
- test_description: NCI-60 one-dose screen, 48 h (100 = growth as untreated, 0 = no growth, -100 = all killed)
- conditions: 10 µM unless noted
Compounds without any hit were thinned out: in the full panel of roughly 83,000, 20% have a hit.
Please mark T if the recorded growth is equal to or greater than 70%, and F if it falls below.

1) CCCCCCCCCCCC(=O)C(CCCCCCCCCC)C(=O)Nc1ccccc1 (stereo not given)	T
2) CCC(C)C(N)C(=O)NNc1n[nH]c(=S)n1N (stereo not given)	T
3) c1ccc2c(-c3c4ccsc4cc4[nH]c5ccccc5c34)c[nH]c2c1	F
4) CC(=O)c1c(-c2ccc(OC(F)(F)F)cc2)nc2ccccn12	T
5) O=C1c2ccccc2-c2c1c1c(NCCCO)nc3ccccc3c1n2Cc1ccccc1	F
6) COc1cnccc1-c1nc2ccc3[nH]ncc3c2c2c1CCCC2	F
7) CC(=O)N1c2ccccc2NC2=C(C(=O)N(C)C2(C)C)C1C (stereo not given)	F
8) O=c1nc2n(nc1/C=C/c1ccco1)CC(c1ccc(Cl)cc1)=NN2	T
9) N#Cc1ccc(-c2ccc3c(c2)NC(=O)/C3=C\c2ccc[nH]2)cc1	T
10) C[C@]12CCc3nc(Nc4cccc(O)c4)sc3C1=CC[C@@H]1[C@@H]2CC[C@]2(C)/C(=N\NC(N)=S)CC[C@@H]12	F
11) CS(=O)(=O)c1ccc(-c2cc3c(oc2=O)-c2ccccc2OC3O)cc1 (stereo not given)	T
12) Cn1c(COC(=O)N2CCCCC2)nc2c(N3CCOCC3)nc(-c3ccccc3)nc21	F
13) COc1cccc(C(Cc2ccccc2)Nc2ccccc2)c1OC (stereo not given)	T
14) Cc1c2c(cc[n+]1Cc1ccccc1)c1ccc(OCc3ccccc3)cc1n2Cc1ccccc1	F
15) CC[C@H](C)[C@@H]1NC(=O)[C@H](Cc2ccc(O)cc2)N(C)C(=O)[C@H](Cc2ccccc2)NC(=O)CN(C)C(=O)[C@@H]2CCCN2C(=O)[C@@H](Cc2ccccc2)N(C)C(=O)[C@H](CC(C)C)NC1=O	F
16) CC(C)Cc1ccc(C(C)C(=O)NCc2c[nH]c3ccc(Cl)cc23)cc1 (stereo not given)	T
17) COc1cc2ncnc(Nc3ccc(C(=O)/C=C/c4ccc(C(F)(F)F)cc4F)cc3)c2cc1OC	T
18) Cc1cc(C)c(C=O)c(C)c1	T
19) COc1ccc(C(O)c2cc3c(N)c(C(=O)Nc4ccc(Cl)cc4)sc3nc2C)cc1 (stereo not given)	F
20) CC1=NNC(=O)C1CCC(=O)N/N=C(\C)c1ccc2ccccc2c1 (stereo not given)	T
21) COc1cc2nc(-c3ccc(C(F)(F)F)cc3)cc(OCCN3CCC(O)CC3)c2cc1OC	F
22) O=C(Nc1nc2ccc(S(=O)(=O)Nc3ccc(C4(C(F)(F)F)CC4)cc3)cc2[nH]1)c1cnccn1	F
23) CCCCCN1C=C/C(=C\C(=O)N(C)c2ccc(Br)cc2)c2ccccc21	T
24) FC(F)(F)c1cccc(Oc2ccc(Nc3ncnc4ccc(OCCCN5CCOCC5)cc34)cc2Cl)c1	F
25) O=C(N/N=C/c1ccc(O)c(O)c1)c1sc2ccccc2c1Cl	T
26) NNC(=O)/C(=C\c1ccc([N+](=O)[O-])cc1)CC(=O)c1ccc(Cl)c(Cl)c1	T
27) COc1ccc(OC)c(/C=C/[C@H]2O[C@@H](C)[C@H](O)[C@@H]2O)c1	T
28) CC(C)C1C2=C(NCCN1C(=O)Cc1ccccc1)C(C)(C)N(Cc1ccccc1)C2=O (stereo not given)	T
29) Cc1c(C(=O)NO)sc2ncnc(Nc3ccc(NC(=S)Nc4ccccc4)cc3)c12	T
30) CC[C@H](CC[C@@H](C)[C@H]1CC[C@H]2[C@@H]3CC=C4C[C@@H](OCCc5nn[nH]n5)CC[C@]4(C)[C@H]3CC[C@]12C)C(C)C	T
31) CC(C)(C)CC(C)(C)Nc1c(-c2ccc(C(F)(F)F)cc2)nc2cnccn12	F
32) CCSc1ccc2c(c1)N(CCCN1CCN(C)CC1)c1ccccc1S2	F
33) O=C1Nc2ccccc2/C1=N/c1nc(-c2ccc(Cl)cc2)cs1	F
34) CCc1c(Nc2ccc(C)cc2)[nH]c(N)nc1=S	T
35) CCOC(=O)c1c(SC)nn(-c2cc(=O)[nH]c3ccc(Br)cc23)c1N	T
36) CCCC/C(=N\N=C(N)N)c1ccc(F)cc1	F
37) Cc1cccc(C)c1-c1cc(Cc2ccc(Cl)cc2)c(=O)[nH]n1	T
38) CCNC(=S)NNC(=O)c1cc2ccc1CCc1ccc(cc1)CC2	T
39) Cc1ccc(C2CC(c3cccc(Nc4ccncc4)c3)=NN2c2ccccc2)cc1 (stereo not given)	F
40) CN1CCN(CCCOc2ccc3ncnc(Nc4ccc(Oc5cccc(C(F)(F)F)c5)c(Cl)c4)c3c2)CC1	F
